The following molecules are listed with their measured Excretion amount values.
Protocol Details: Urinary excretion study in rats after oral NS, SF or CNS (LC–MS/MS)
Type: in vivo
Condition Parameters: rat urine, oral CNS 110 mg/kg, 24 h
Record the value in µg, omitting the unit from your answer.

// worked examples, Excretion amount included
CC(C)=CCC[C@](C)(O[C@@H]1O[C@H](CO)[C@@H](O)[C@H](O)[C@H]1O)[C@H]1CC[C@]2(C)[C@@H]1[C@H](O)C[C@@H]1[C@@]3(C)CC[C@H](O[C@@H]4O[C@H](CO)[C@@H](O)[C@H](O)[C@H]4O[C@@H]4O[C@H](CO)[C@@H](O)[C@H](O)[C@H]4O)C(C)(C)[C@@H]3CC[C@]12C [ginsenoside Rd]	0.058
CC(C)=CCC[C@](C)(O[C@@H]1O[C@H](CO)[C@@H](O)[C@H](O)[C@H]1O)[C@H]1CC[C@]2(C)[C@@H]1[C@H](O)C[C@@H]1[C@@]3(C)CC[C@H](O)C(C)(C)[C@@H]3[C@@H](O[C@@H]3O[C@H](CO)[C@@H](O)[C@H](O)[C@H]3O)C[C@]12C [ginsenoside Rg1]	2.622

As a next step, examine the molecule that follows.
Record CC(C)=CCC[C@](C)(O[C@@H]1O[C@H](CO)[C@@H](O)[C@H](O)[C@H]1O)[C@H]1CC[C@]2(C)[C@@H]1[C@H](O)C[C@@H]1[C@@]3(C)CC[C@H](O)C(C)(C)[C@@H]3[C@@H](O[C@@H]3O[C@H](CO)[C@@H](O)[C@H](O)[C@H]3O[C@@H]3O[C@@H](C)[C@H](O)[C@@H](O)[C@H]3O)C[C@]12C [ginsenoside Re] . Reported Excretion amount: 0.058

---

Protocol Details: Urinary excretion study in rats after oral NS, SF or CNS (LC–MS/MS)
Assay type: in vivo
Condition Parameters: male, Sprague Dawley, rat, urine, oral, 60 mg/kg, oral NS 60 mg/kg, 48 h
Recorded Metric: concentration at 48 h (ng/mL)
Record the value in ng/mL, omitting the unit from your answer.

CC(C)=CCC[C@](C)(O[C@@H]1O[C@H](CO)[C@@H](O)[C@H](O)[C@H]1O)[C@H]1CC[C@]2(C)[C@@H]1[C@H](O)C[C@@H]1[C@@]3(C)CC[C@H](O)C(C)(C)[C@@H]3[C@@H](O[C@@H]3O[C@H](CO)[C@@H](O)[C@H](O)[C@H]3O)C[C@]12C [ginsenoside Rg1]	100
CC(C)=CCC[C@](C)(O[C@@H]1O[C@H](CO[C@@H]2O[C@H](CO)[C@@H](O)[C@H](O)[C@H]2O)[C@@H](O)[C@H](O)[C@H]1O)[C@H]1CC[C@]2(C)[C@@H]1[C@H](O)C[C@@H]1[C@@]3(C)CC[C@H](O[C@@H]4O[C@H](CO)[C@@H](O)[C@H](O)[C@H]4O[C@@H]4O[C@H](CO)[C@@H](O)[C@H](O)[C@H]4O)C(C)(C)[C@@H]3CC[C@]12C [ginsenoside Rb1]	142

Record CC(C)=CCC[C@](C)(O[C@@H]1O[C@H](CO)[C@@H](O)[C@H](O)[C@H]1O)[C@H]1CC[C@]2(C)[C@@H]1[C@H](O)C[C@@H]1[C@@]3(C)CC[C@H](O[C@@H]4O[C@H](CO)[C@@H](O)[C@H](O)[C@H]4O[C@@H]4O[C@H](CO)[C@@H](O)[C@H](O)[C@H]4O)C(C)(C)[C@@H]3CC[C@]12C [ginsenoside Rd] . Reported concentration at 48 h: 12
